Molecular target: human Siglec-8 (full-length, on transfected CHO or 293 cells, or native on human eosinophils) (human, UniProt Q9NYZ4 17-499)
Sequence (Q9NYZ4 17-499): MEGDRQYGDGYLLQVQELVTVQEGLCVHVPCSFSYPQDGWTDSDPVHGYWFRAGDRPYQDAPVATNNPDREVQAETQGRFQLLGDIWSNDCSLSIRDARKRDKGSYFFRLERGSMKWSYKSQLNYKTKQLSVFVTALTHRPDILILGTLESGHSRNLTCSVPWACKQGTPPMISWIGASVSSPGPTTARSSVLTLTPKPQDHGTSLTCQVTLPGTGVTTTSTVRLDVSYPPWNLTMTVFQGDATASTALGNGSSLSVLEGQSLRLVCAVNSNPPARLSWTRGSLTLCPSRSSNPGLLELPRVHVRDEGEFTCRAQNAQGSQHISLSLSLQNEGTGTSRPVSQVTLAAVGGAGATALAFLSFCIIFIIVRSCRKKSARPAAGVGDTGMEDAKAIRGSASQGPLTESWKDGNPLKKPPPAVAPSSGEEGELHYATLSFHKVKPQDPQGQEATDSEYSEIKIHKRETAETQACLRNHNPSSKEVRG
Test: flow cytometry on 293 cells transiently transfected with full-length human Siglec-8; A647 anti-human Fc-gamma secondary; median fluorescence, nonlinear fit; table under the graph (Kd column without unit, concentration axis nM Ab)
Outcome Measure: log10(Kd) (log10 of the value in pM)
For clarity, the numbers are log10 values of Kd expressed in pM.

Batch: log10(Kd) for all items listed.
1. Siglec8 hzG2v24, monomeric VHH-hIgG1 fusion (Fc NNT) (Fc fusion, Monomeric format; not shown: non-dimerizing human IgG1 Fc variant lacking a hinge (Fc NNT)) QVTLKESGGGLVRTGGSLRLSCAASGSISIFSMYVVAWYRQAPGKQREWVAFIQRGGTANYAESAKGRFTISRDNAKNTVYLQMSSLRAEDTAVYYCNYINSDNEIGGPWGQGTLVTVKP
2. Siglec8 hzG2v11, monomeric VHH-hIgG1 fusion (Fc NNT) (Fc fusion, Monomeric format; not shown: non-dimerizing human IgG1 Fc variant lacking a hinge (Fc NNT)) EVQLLESGGGEVQPGGSLRLSCAASGSISIFSMYVVAWYRQAPGKEREWVAFIQRGGTANYAESAKGRFTISRDNAKNTVYLQMSSLRAEDTAVYYCNYIQSDNEIGGPWGQGTLVTVKP

1: 2.26; 2: 2.15

Batch: log10(Kd) for all items listed.
1. Siglec8 hzG2v6.1, monomeric VHH-hIgG1 fusion (Fc NNT) (Fc fusion, Monomeric format; not shown: non-dimerizing human IgG1 Fc variant lacking a hinge (Fc NNT)) EVQLLESGGGEVQPGGSLRLSCAASGSISIFSMYVVAWYRQAPGKQREWVSFIQRGGTANYAESAKGRFTISRDNAKNTVYLQMSSLRAEDTAVYYCNYINSDNEIGGPWGQGTLVTVKP
2. Siglec8 hzG2v16, monomeric VHH-hIgG1 fusion (Fc NNT) (Fc fusion, Monomeric format; not shown: non-dimerizing human IgG1 Fc variant lacking a hinge (Fc NNT)) EVQLLESGGGEVQPGGSLRLSCAASGSISIFSLYVVAWYRQAPGKEREWVAFIQRGGTANYAESAKGRFTISRDNAKNTVYLQMSSLRAEDTAVYYCNYINSDNEIGGPWGQGTLVTVKP
3. Siglec8 hzG2v15, monomeric VHH-hIgG1 fusion (Fc NNT) (Fc fusion, Monomeric format; not shown: non-dimerizing human IgG1 Fc variant lacking a hinge (Fc NNT)) EVQLLESGGGEVQPGGSLRLSCAASGSISIFSYYVVAWYRQAPGKEREWVAFIQRGGTANYAESAKGRFTISRDNAKNTVYLQMSSLRAEDTAVYYCNYINSDNEIGGPWGQGTLVTVKP
4. Siglec8 hzG2v2.1, monomeric VHH-hIgG1 fusion (Fc NNT) (Fc fusion, Monomeric format; not shown: non-dimerizing human IgG1 Fc variant lacking a hinge (Fc NNT)) EVQLLESGGGEVQPGGSLRLSCAASGSISIFSMYVVAWYRQAPGKEREWVAFIQRGGTANYAESAKGRFTISRDNAKNTVYLQMSSLRAEDTAVYYCNYINSDNEIGGPWGQGTLVTVKP

3.23
2.00
2.24
3.20
